B1: HEEH_KT_rd6_0007 (parent)
chain: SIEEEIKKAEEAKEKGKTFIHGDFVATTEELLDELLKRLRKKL

# Variants of: B1
# Test Name: folding stability dG (cDNA display proteolysis); higher = more stable
# Run Conditions: PBS, room temperature
Classify by measured folding stability dG: class 1 if it is equal to or exceeds 1 kcal/mol, class 0 if it is smaller.

Mutation String: G22Q
Classification: class 0
//
Mutation String: E10C
Classification: class 1
//
Mutation String: H21G
Classification: class 0
//
Mutation String: K15Y
Classification: class 1
//
Mutation String: R40Y
Classification: class 1
//
Mutation String: K13A
Classification: class 0
//
Mutation String: T18L
Classification: class 1
//
Mutation String: E4F
Classification: class 1
//
Mutation String: V25M
Classification: class 1
//
Mutation String: L31R
Classification: class 0
//
Mutation String: A26T
Classification: class 0

Taken from the MegaScale stability set (Tsuboyama et al. 2023).
